Test system: 4T1 (mouse breast cancer)
Protocol notes: MTS cell viability assay, 4T1 cells
Assay type: cell-based
Experimental setup: Mus musculus, 4T1; MTS, 48 hours, individual drug; read-out: ED50 in 4T1
Give measured pEC50 for each item. Keep answers brief.
Please report pEC50 as the negative decimal logarithm of the molar concentration, giving only the number.

Which pEC50 value belongs to CN(Cc1cnc2nc(N)nc(N)c2n1)c1ccc(C(=O)N[C@@H](CCC(=O)O)C(=O)O)cc1 [MTG, Methotrexate] ?
7.31

For COc1c(O)cc(O)c2c(=O)cc(-c3ccccc3)oc12 , what is its reported pEC50?
4.07

All values here come from patent US12161657B2.
